# Octet response value per entry
Target: T1, Human CD228 protein (human, UniProt P08582 20-708, limits assumed)
T1 construct: Recombinant protein made in CHO cells, purified over a Ni column; The printed entry begins with the leader (MRGPSG...) and ends with ten His; also called hCD228; CD228-His protein
T1 sequence: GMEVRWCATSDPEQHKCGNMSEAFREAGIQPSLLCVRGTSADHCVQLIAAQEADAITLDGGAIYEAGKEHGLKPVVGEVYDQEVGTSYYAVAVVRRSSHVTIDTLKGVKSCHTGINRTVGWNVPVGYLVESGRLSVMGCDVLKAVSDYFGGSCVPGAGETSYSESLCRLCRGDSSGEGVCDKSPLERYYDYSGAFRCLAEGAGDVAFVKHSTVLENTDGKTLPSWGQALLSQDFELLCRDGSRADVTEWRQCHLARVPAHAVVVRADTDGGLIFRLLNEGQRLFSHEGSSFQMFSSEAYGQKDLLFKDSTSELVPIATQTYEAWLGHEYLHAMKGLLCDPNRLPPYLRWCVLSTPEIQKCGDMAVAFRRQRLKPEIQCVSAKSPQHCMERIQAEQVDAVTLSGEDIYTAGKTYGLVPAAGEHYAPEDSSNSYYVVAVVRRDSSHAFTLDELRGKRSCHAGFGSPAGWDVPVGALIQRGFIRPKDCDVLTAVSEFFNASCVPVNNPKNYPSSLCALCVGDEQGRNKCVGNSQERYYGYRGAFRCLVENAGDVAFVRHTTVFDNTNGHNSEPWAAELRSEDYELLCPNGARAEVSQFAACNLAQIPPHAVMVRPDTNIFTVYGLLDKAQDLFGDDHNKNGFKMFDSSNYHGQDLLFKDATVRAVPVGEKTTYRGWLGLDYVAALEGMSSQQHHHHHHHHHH
Test: Octet competition on His-chip CD228; competitor: CA67
Description: CD228 proteins were immobilized on His chips at 10 μg/mL with a threshold of 0.5 nm. The first CD228 antibody (30 μg/mL) was immobilized, and the competitive binding of the second CD228 antibody (30 μg/mL) was analyzed. The Octet 8K system was used to analyze the response of antibody 2 and to determine whether antibody 1 and antibody 2 were in competition.
Hey, just send me the number, nothing else.

Per the records, this binder ( CA185 (antibody, human IgG1, kappa, V domains shown, Intact IgG1) VH: EVQLVESGGGVVQPGRSLRLSCAASGFTFSSYAMHWVRQAPGKGLEWVAVISYDGSNKYYADSVKGRFTISRDNSKNTLYLQMNSLRAEDTAVYYCAREVPYYYGSGPFDYWGQGTLVTVSS VL: EIVLTQSPGTLSLSPGERATLSCRASQSVSSSSLAWYQQKPGQAPRHLIDGASSRASGIPDRFSGSGSGTDFTLTISRLEPEDFAVYYCQQYGSSYTFGQGTKVDIKR ) has Octet response value equal to 0.0028

Per the records, this binder ( CA518 (antibody, human IgG1, kappa, V domains shown, Intact IgG1) VH: EVQLVESGGGVVQPGRSLRLSCAASGFTFSSYAMHWVRQAPGKGLEWVAVISYDGSNKYHADSVKGRFTISRDNSKNTLFLQMNSLRAEDTAVYYCVRDVYHYGSRSPYYYGMDVWGQGTTVTVSS VL: DIQMTQSPSSVSASVGDRVTITCRASQGISSWLAWYQQKPGKAPKLLIYAASSLQSGVPSRFSGSGSGTDFTLTISSLQPEDVATYYCQKYNSAPFTFGPGTKVDIKR ) has Octet response value equal to 0.0039

Per the records, this binder ( BA352 (antibody, human IgG1, kappa, V domains shown, Intact IgG1) VH: EVQLVESGGGVVQPGRSLRLSCAASGFTFSSYAMHWVRQAPGKGLEWVAVISYDGSNKYYADSVKGRFTISRDNSKNTLYLQMNSLRAEDTAVYYCARGPYLAAAGTALTFDIWGQGTMVTVSS VL: DIQMTQSPSAMSASVGDRVTITCRASQGINNYLAWFQQKPGKVPKRLIYAASSLQSGVPSRFSGSGSGTEFTLTISSLQPEDFATYYCLQHNSYPFTFGPGTKVDIKR ) has Octet response value equal to 0.443
